The reported numbers originate from ChEMBL document CHEMBL1909046.

target-or-system: Cytochrome P450 2A6 (Homo sapiens); further: in other assays of this panel Not Active means under 50% inhibition at 10 µM
Sequence (P11509 whole entry): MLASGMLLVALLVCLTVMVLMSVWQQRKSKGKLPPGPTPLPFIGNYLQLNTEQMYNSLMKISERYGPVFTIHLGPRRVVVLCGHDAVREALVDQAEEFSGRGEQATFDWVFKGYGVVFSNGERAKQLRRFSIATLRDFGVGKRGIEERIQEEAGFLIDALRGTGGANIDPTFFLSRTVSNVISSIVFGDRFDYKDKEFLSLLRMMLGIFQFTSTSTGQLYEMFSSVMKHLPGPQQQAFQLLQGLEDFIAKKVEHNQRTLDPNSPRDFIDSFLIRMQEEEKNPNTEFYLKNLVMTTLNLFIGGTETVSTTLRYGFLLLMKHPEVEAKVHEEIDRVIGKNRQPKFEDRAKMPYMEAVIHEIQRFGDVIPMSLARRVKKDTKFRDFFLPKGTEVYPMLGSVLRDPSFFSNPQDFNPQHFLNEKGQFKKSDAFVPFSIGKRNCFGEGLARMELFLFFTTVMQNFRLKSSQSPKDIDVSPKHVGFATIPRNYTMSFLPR
test-conditions: bti-tn-5b1-4
value-kind: IC50

Answered cases to consult:
{"cpd-smiles": "CN[C@@H]1[C@H](O)[C@H](NC)[C@H]2O[C@@]3(O)C(=O)C[C@@H](C)O[C@H]3O[C@@H]2[C@H]1O", "target-or-system": "Cytochrome P450 2A6 (Homo sapiens)", "test-result": "Not Active"}
{"cpd-smiles": "COc1ccc2cc(CCC(C)=O)ccc2c1", "target-or-system": "Cytochrome P450 2A6 (Homo sapiens)", "test-result": "Not Active"}
{"cpd-smiles": "O=C(/C=C/c1ccc(O)c(O)c1)OCCc1ccccc1", "target-or-system": "Cytochrome P450 2A6 (Homo sapiens)", "test-result": "Not Active"}
{"cpd-smiles": "C[C@H]([C@](O)(Cn1cncn1)c1ccc(F)cc1F)S(C)(=O)=O", "target-or-system": "Cytochrome P450 2A6 (Homo sapiens)", "test-result": "Not Active"}
{"cpd-smiles": "Cc1cccc(Nc2cc(Cl)nc(SCC(=O)O)n2)c1C", "target-or-system": "Cytochrome P450 2A6 (Homo sapiens)", "test-result": "Not Active"}
{"cpd-smiles": "NC[C@H]1O[C@H](O[C@H]2[C@H](O)[C@@H](O[C@H]3O[C@H](CO)[C@@H](O)[C@H](N)[C@H]3O)[C@H](N)C[C@@H]2N)[C@H](O)[C@@H](O)[C@@H]1O", "target-or-system": "Cytochrome P450 2A6 (Homo sapiens)", "test-result": "Not Active"}

Incoming: # get_value(readout='IC50', item= COc1cc(C(=O)NS(=O)(=O)c2ccccc2C)ccc1Cc1cn(C)c2ccc(NC(=O)OC3CCCC3)cc12 )
Outgoing: Not Active
